# testedTarget: Human FRA on IGROV-1 human ovarian adenocarcinoma cells (human, UniProt P15328 25-234)
# Sequence (P15328 25-234 limits assumed): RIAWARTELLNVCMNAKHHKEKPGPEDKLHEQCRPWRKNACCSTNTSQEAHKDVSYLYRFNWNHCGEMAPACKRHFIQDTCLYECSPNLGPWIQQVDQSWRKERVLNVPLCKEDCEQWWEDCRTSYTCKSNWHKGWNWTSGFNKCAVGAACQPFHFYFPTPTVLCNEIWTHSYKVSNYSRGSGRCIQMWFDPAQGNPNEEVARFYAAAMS
# protocolText: cell-based or functional assay
Measured INTL % (30 min) by item

binder	INTL % (30 min) / %
MORAb-003 anti-FRA antibody, lot NB809-70 (CuCl supplement; harvested 13 days after initiation of culture) (antibody, human IgG1, kappa, V domains shown, N-linked neutral glycans at Asn299 in SEQ ID NO: 5) VH: EVQLVESGGGVVQPGRSLRLSCSASGFTFSGYGLSWVRQAPGKGLEWVAMISSGGSYTYYADSVKGRFAISRDNAKNTLFLQMDSLRPEDTGVYFCARHGDDPAWFAYWGQGTPVTVSS VL: DIQLTQSPSSLSASVGDRVTITCSVSSSISSNNLHWYQQKPGKAPKPWIYGTSNLASGVPSRFSGSGSGTDYTFTISSLQPEDIATYYCQQWSSYPYMYTFGQGTKVEIKR	16
MORAb-003 anti-FRA antibody, lot NB809-69 (10 mM Na butyrate; harvested 13 days after initiation of culture) (antibody, human IgG1, kappa, V domains shown, N-linked neutral glycans at Asn299 in SEQ ID NO: 5) VH: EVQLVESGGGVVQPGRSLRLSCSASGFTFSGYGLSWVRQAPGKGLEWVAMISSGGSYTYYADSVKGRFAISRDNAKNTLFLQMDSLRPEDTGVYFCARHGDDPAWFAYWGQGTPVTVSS VL: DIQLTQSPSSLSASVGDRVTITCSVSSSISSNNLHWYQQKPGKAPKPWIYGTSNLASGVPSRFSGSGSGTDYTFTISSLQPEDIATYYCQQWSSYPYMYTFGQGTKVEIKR	14
MORAb-003 anti-FRA antibody, lot NB859-26 (harvested 17 days after initiation of culture) (antibody, human IgG1, kappa, V domains shown, N-linked neutral glycans at Asn299 in SEQ ID NO: 5, also called Day 17 harvest) VH: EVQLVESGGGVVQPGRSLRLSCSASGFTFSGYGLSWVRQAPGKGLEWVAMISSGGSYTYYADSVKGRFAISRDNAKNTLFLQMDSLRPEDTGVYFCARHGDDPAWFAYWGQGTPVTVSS VL: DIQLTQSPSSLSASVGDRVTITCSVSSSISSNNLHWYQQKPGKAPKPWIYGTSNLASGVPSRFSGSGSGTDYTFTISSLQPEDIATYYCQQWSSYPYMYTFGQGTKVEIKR	23
MORAb-003 anti-FRA antibody, lot NB859-28 (low DO; harvested 14 days after initiation of culture) (antibody, human IgG1, kappa, V domains shown, N-linked neutral glycans at Asn299 in SEQ ID NO: 5, also called low DO (round 3)) VH: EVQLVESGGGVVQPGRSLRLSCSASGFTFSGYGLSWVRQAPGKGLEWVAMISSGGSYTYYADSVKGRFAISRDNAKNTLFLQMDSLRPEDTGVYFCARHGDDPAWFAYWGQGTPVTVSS VL: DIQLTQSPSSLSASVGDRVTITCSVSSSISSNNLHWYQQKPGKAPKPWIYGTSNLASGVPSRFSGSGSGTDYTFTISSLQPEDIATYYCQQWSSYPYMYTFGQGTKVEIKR	19
